B1: Ankyrin-3, residues 4094 to 4171; numbered along this chain, Q12955 (parent)
chain: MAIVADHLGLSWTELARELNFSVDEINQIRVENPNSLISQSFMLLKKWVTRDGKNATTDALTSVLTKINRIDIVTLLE

- Variants of: B1
- protocol: abundance fitness (aPCA) (normalised: wild type 0, dead -1); higher = more abundant; growth selection in yeast, the domain comes from the species named
- condition context: Homo sapiens
metric name: abundance fitness
Answer field: number only, no words.

A selection of reference data follows.
L45Q ... -0.833
W48I ... -0.83
G53T ... -0.521
I38H ... -0.167
I3K ... -0.27

Next, consider the following variant.
Query block: Dear colleague, please send me the reported abundance fitness for `I71C` when you can.
Result block: -0.167
